TEST_DESCRIPTION: log P determination (HPLC, calibration with unbranched alkan-2-ones)
Format: physicochemical
ASSAY_SETUP: * LC-MS determination in the acidic range at pH 2.7, mobile phases 0.1% aqueous formic acid and acetonitrile (0.1% formic acid), linear gradient 10% to 95% acetonitrile; reversed-phase C 18 HPLC
READOUT: log p

These solved cases illustrate the format of a correct answer.
| COMPOUND | log p |
| --- | --- |
| CC(C)c1cc(C(F)(F)F)n(CC(=O)N2CCC(c3nc(C(=O)OCC4CCCCC4)cs3)CC2)n1 | 4.35* |
| Cc1cc(C(F)(F)F)nn1CC(=O)N1CCC(c2nc(C(=O)OC3(C#N)CCCCC3)cs2)CC1 | 3.33* |
| Cc1cc(C(F)(F)F)nn1CC(=O)N1CCC(c2nc(C(=O)OCc3cccc4ccccc34)cs2)CC1 | 3.90* |

Need log p, item Cc1cc(C(F)(F)F)nn1CC(=O)N1CCC(c2nc(C(=O)OC3CC(C)CCC3C(C)C)cs2)CC1 (stereo not drawn)
5.22*

Item: `CC(C)(C)c1cc(C(F)(F)F)n(CC(=O)N2CCC(c3nc(C(=O)OCC4CCCCC4)cs3)CC2)n1`
4.75*

Item: `O=C(Oc1cccc2ccccc12)c1csc(C2CCN(C(=O)Cn3nc(C(F)(F)F)cc3-c3ccccc3)CC2)n1`
4.50*

Item: Cc1cc(C)n(C(C)(C)C(=O)N2CCC(c3nc(C(=O)OC4CC5CCC4(C)C5(C)C)cs3)CC2)n1 (stereo not drawn)
5.08*

Item: `Cc1cc(C(F)(F)F)nn1CC(=O)N1CCC(c2nc(C(=O)Oc3ccc4cccnc4c3)cs2)CC1`
2.42*

Item: `Cc1cc(C(F)(F)F)nn1CC(=O)N1CCC(c2nc(C(=O)Oc3cccc4cnccc34)cs2)CC1`
2.18*

Item: Cc1cc(C(F)(F)F)nn1CC(=O)N1CCC(c2nc(C(=O)OC(C)c3cccc4ccccc34)cs2)CC1 (stereo not drawn)
4.16*

----------
TEST_DESCRIPTION: log P determination (HPLC, calibration with unbranched alkan-2-ones)
Format: physicochemical
ASSAY_SETUP: * LC-MS determination in the acidic range at pH 2.7, mobile phases 0.1% aqueous formic acid and acetonitrile (0.1% formic acid), linear gradient 10% to 95% acetonitrile; reversed-phase C 18 HPLC
List of log p values.

These solved cases illustrate the format of a correct answer.
| COMPOUND | EXPERIMENTAL_RESULT |
| --- | --- |
| CC(C(=O)N1CCC(c2nc(C(=O)Oc3cccc4ccccc34)cs2)CC1)n1ccc(C(F)(F)F)n1 (stereo not shown) | 3.87* |
| Cc1cc(C(F)(F)F)nn1CC(=O)N1CCC(c2nc(C(=O)Oc3cccc4ocnc34)cs2)CC1 | 2.81* |
| Cc1cc(C(F)(F)F)nn1CC(=O)N1CCC(c2nc(C(=O)OC(C)c3ccc4ccccc4c3)cs2)CC1 (stereo not shown) | 4.18* |
| Cc1cc(C(F)(F)F)nn1CC(=O)N1CCC(c2nc(C(=O)OC(c3ccccc3)c3ccccc3)cs2)CC1 | 4.17* |
| Cc1cc(C(F)(F)F)nn1CC(=O)N1CCC(c2nc(C(=O)Oc3ccc(Oc4ccccc4)cc3)cs2)CC1 | 4.14* |
| Cc1cc(C(F)(F)F)nn1CC(=O)N1CCC(c2nc(C(=O)OC3C(C)CCCC3C)cs2)CC1 (stereo not shown) | 4.40* |
| Cc1cc(C(F)(F)F)nn1CC(=O)N1CCC(c2nc(C(=O)OCc3ccc4ccccc4c3)cs2)CC1 | 3.92* |
| Cc1cc(C(F)(F)F)nn1CC(=O)N1CCC(c2nc(C(=O)OCc3ccccc3C(F)(F)F)cs2)CC1 | 3.84* |

Need log p, item `COc1ccccc1OC(=O)c1csc(C2CCN(C(=O)Cn3nc(C(F)(F)F)cc3C)CC2)n1`
3.17*

Item: `C#CC1(OC(=O)c2csc(C3CCN(C(=O)C(C)(C)n4nc(C)cc4C)CC3)n2)CCCCC1`
3.73*
